# credit: patent US10517889B2

# Tested on: human peripheral blood mononuclear cells (PBMCs)
# measurement_protocol: Human PBMC activation assay, cytokine levels (IL-10, IL-6, MCP-1, TNF-α) in supernatant after 24 hours (Example 9)
# reported_conditions: human PBMC supernatant after 24 hours; 1.6 μM oligonucleotide
For each entry below, report its Levels of MCP-1 value.
Number only, in pg/mL; omit the unit.

# get_value(readout='Levels of MCP-1', item= 830121 (AGAATCAAGCCCTGGC; 3-10-3 cEt gapmer, further chemistry not given here) [compound 830121] )
501.8

# get_value(readout='Levels of MCP-1', item= 790615 (CCAATGAGAATGCTTC; 3-10-3 cEt gapmer, further chemistry not given here) [compound 790615] )
495.8

# get_value(readout='Levels of MCP-1', item= 830025 (antisense TTTGTAAATCGAAAGC; 3-10-3 cEt gapmer, further chemistry not given here) [compound 830025] )
554.3

---

# Tested on: human SMAD7 mRNA
# measurement_protocol: Dose-dependent inhibition of human SMAD7 mRNA expression in Hep3B cells (Example 3, Study 1 and 2)
# Assay type: cell-based
# reported_conditions: electroporation, Study 2 (740-20000 nM)
Strand notation (5' to 3'): a small letter for the sugar, then the base; units joined by * are phosphorothioate-linked, units joined directly phosphodiester-linked; [ ] holds rarer units or linkages, { } end groups; capitals alone tell only the bases. k = constrained ethyl (cEt); [5mC] = 5-methylcytosine; d = 2'-deoxy (DNA)
Label 1 (yes) when IC50 < 5000 nM; otherwise 0 (no).

Given 799577 (kT*kT*k[5mC]*d[5mC]*dG*dA*dA*dA*dG*dG*dA*d[5mC]*d[5mC]*k[5mC]*kT*kT; antisense) [compound 799577] , is recorded IC50 strictly lower than 5000 nM?
1 (yes)

Given 829767 (antisense kG*kG*kA*dG*dG*d[5mC]*dA*d[5mC]*dG*d[5mC]*dG*dG*dT*kG*k[5mC]*kG) [compound 829767] , is recorded IC50 strictly lower than 5000 nM?
1 (yes)

Given 830122 (kG*kA*kG*dA*dA*dT*d[5mC]*dA*dA*dG*d[5mC]*d[5mC]*d[5mC]*kT*kG*kG; antisense) [compound 830122] , is recorded IC50 strictly lower than 5000 nM?
1 (yes)

Given 799511 (antisense kT*kA*kA*dT*dG*dA*d[5mC]*dA*dA*dT*dT*d[5mC]*d[5mC]*kA*kG*k[5mC]) [compound 799511] , is recorded IC50 strictly lower than 5000 nM?
1 (yes)

Given 830028 (antisense k[5mC]*kA*kG*dT*d[5mC]*dA*dA*dG*dT*dT*dA*d[5mC]*dA*kG*kT*k[5mC]) [compound 830028] , is recorded IC50 strictly lower than 5000 nM?
1 (yes)

Given 790616 (k[5mC]*kT*kA*dA*dA*dT*dT*dT*d[5mC]*d[5mC]*dA*dA*dT*kG*kA*kG; antisense) [compound 790616] , is recorded IC50 strictly lower than 5000 nM?
0 (no)

Given 799808 (antisense kG*k[5mC]*kT*dG*dA*dA*dA*dG*dA*dA*dA*dG*dT*k[5mC]*k[5mC]*k[5mC]) [compound 799808] , is recorded IC50 strictly lower than 5000 nM?
0 (no)

Given 799851 (kA*kA*kG*dT*dG*dT*d[5mC]*d[5mC]*dA*dT*d[5mC]*dA*dA*kG*k[5mC]*kA; antisense) [compound 799851] , is recorded IC50 strictly lower than 5000 nM?
1 (yes)

Given 799791 (kG*kG*kG*dA*dG*dA*d[5mC]*d[5mC]*dT*dA*d[5mC]*d[5mC]*dT*k[5mC]*kT*kG; antisense) [compound 799791] , is recorded IC50 strictly lower than 5000 nM?
0 (no)

Given 799631 (k[5mC]*k[5mC]*kA*dA*dA*dT*d[5mC]*dA*d[5mC]*dA*dA*dA*dG*k[5mC]*kA*kG; antisense) [compound 799631] , is recorded IC50 strictly lower than 5000 nM?
1 (yes)

Given 799624 (kT*kG*kA*dA*dA*dG*dT*dA*d[5mC]*dA*dA*dT*d[5mC]*kT*k[5mC]*k[5mC]; antisense) [compound 799624] , is recorded IC50 strictly lower than 5000 nM?
0 (no)

---

# measurement_protocol: Body and organ weights after oral gavage in CD-1 mice (Example 7)
# Type: in vivo
# reported_conditions: 500 mg/kg oral gavage once daily for 4 weeks, end of study
For each entry below, report its Liver with gallbladder weight value.
Number only, in g; omit the unit.

# get_value(readout='Liver with gallbladder weight', item= 829994 (GGAGGCAGGGCCGCGA; 3-10-3 cEt gapmer, further chemistry not given here) [compound 829994] )
2.02

# get_value(readout='Liver with gallbladder weight', item= 830121 (AGAATCAAGCCCTGGC; 3-10-3 cEt gapmer, further chemistry not given here) [compound 830121] )
1.92

# get_value(readout='Liver with gallbladder weight', item= 798781 (CGTAAGATTCACAGCA; 3-10-3 cEt gapmer, further chemistry not given here) [compound 798781] )
1.86

---

# System: human SMAD7 mRNA
# measurement_protocol: Dose-dependent inhibition of human SMAD7 mRNA expression in Hep3B cells (Example 3, Study 1 and 2)
# Format: cell-based
# reported_conditions: 740 nM, electroporation, approximately 16 hours, Study 2, relative to untreated control cells
Strand notation (5' to 3'): a small letter for the sugar, then the base; units joined by * are phosphorothioate-linked, units joined directly phosphodiester-linked; [ ] holds rarer units or linkages, { } end groups; capitals alone tell only the bases. k = constrained ethyl (cEt); [5mC] = 5-methylcytosine; d = 2'-deoxy (DNA)
Rule: % inhibition of SMAD7 mRNA expression of 20% or more gives 1; anything lower gives 0.

Can 799851 (kA*kA*kG*dT*dG*dT*d[5mC]*d[5mC]*dA*dT*d[5mC]*dA*dA*kG*k[5mC]*kA; antisense) [compound 799851] be said to have % inhibition of SMAD7 mRNA expression at or above 20%?
0

Can 772568 (antisense kA*kG*k[5mC]*d[5mC]*dT*d[5mC]*dT*dT*dG*dA*d[5mC]*dT*dT*k[5mC]*k[5mC]*kG) [compound 772568] be said to have % inhibition of SMAD7 mRNA expression at or above 20%?
1

Can 798954 (antisense kA*kT*kA*dA*dG*d[5mC]*dT*dA*dT*dT*dT*d[5mC]*dT*k[5mC]*kA*kA) [compound 798954] be said to have % inhibition of SMAD7 mRNA expression at or above 20%?
0

Can 799509 (antisense kA*kG*kA*dA*dA*d[5mC]*dA*dG*dT*d[5mC]*dT*d[5mC]*d[5mC]*kA*k[5mC]*kA) [compound 799509] be said to have % inhibition of SMAD7 mRNA expression at or above 20%?
1

Can 799577 (kT*kT*k[5mC]*d[5mC]*dG*dA*dA*dA*dG*dG*dA*d[5mC]*d[5mC]*k[5mC]*kT*kT; antisense) [compound 799577] be said to have % inhibition of SMAD7 mRNA expression at or above 20%?
1

Can 798662 (kG*k[5mC]*kT*d[5mC]*d[5mC]*dG*dG*d[5mC]*dT*dG*d[5mC]*d[5mC]*d[5mC]*k[5mC]*kA*k[5mC]; antisense) [compound 798662] be said to have % inhibition of SMAD7 mRNA expression at or above 20%?
0

---

For each entry below, report its % Inhibition value.
# System: human SMAD7 mRNA
# measurement_protocol: Antisense inhibition of human SMAD7 mRNA expression in Hep3B cells by 3-10-3 cEt gapmers, 10,000 nM, electroporation (Example 2)
# Format: cell-based
# reported_conditions: Hep3B cells, electroporation with 10,000 nM antisense oligonucleotide, approximately 24 hours, SMAD7 mRNA by RT-PCR (RTS5062), relative to untreated control cells
Strand notation (5' to 3'): a small letter for the sugar, then the base; units joined by * are phosphorothioate-linked, units joined directly phosphodiester-linked; [ ] holds rarer units or linkages, { } end groups; capitals alone tell only the bases. k = constrained ethyl (cEt); [5mC] = 5-methylcytosine; d = 2'-deoxy (DNA)
Number only, in %; omit the unit.

# get_value(readout='% Inhibition', item= 830105 (kT*kT*kA*dA*dG*d[5mC]*d[5mC]*d[5mC]*dG*d[5mC]*dT*d[5mC]*dT*k[5mC]*kA*kG; antisense) [compound 830105] )
48

# get_value(readout='% Inhibition', item= 830031 (antisense kT*kA*k[5mC]*d[5mC]*dT*dA*dA*dT*dG*dT*d[5mC]*dA*dA*k[5mC]*kA*k[5mC]) [compound 830031] )
44

# get_value(readout='% Inhibition', item= 790496 (kG*k[5mC]*kA*dG*dA*dG*dT*d[5mC]*dG*dG*d[5mC]*dT*dA*kA*kG*kG; antisense) [compound 790496] )
42

# get_value(readout='% Inhibition', item= 799427 (antisense kG*kT*k[5mC]*d[5mC]*dA*dG*dG*d[5mC]*d[5mC]*dT*d[5mC]*d[5mC]*d[5mC]*kA*kG*kA) [compound 799427] )
20

# get_value(readout='% Inhibition', item= 830133 (antisense kA*k[5mC]*kA*dA*dT*d[5mC]*dT*d[5mC]*d[5mC]*dT*dG*dG*dA*kA*kG*k[5mC]) [compound 830133] )
26

# get_value(readout='% Inhibition', item= 799352 (kG*k[5mC]*kG*dG*dT*dG*dA*dT*dT*dG*d[5mC]*d[5mC]*dT*kT*kG*kA; antisense) [compound 799352] )
24

# get_value(readout='% Inhibition', item= 799509 (antisense kA*kG*kA*dA*dA*d[5mC]*dA*dG*dT*d[5mC]*dT*d[5mC]*d[5mC]*kA*k[5mC]*kA) [compound 799509] )
57

# get_value(readout='% Inhibition', item= 799258 (antisense kG*k[5mC]*k[5mC]*d[5mC]*d[5mC]*dA*dA*dA*dA*d[5mC]*dT*d[5mC]*d[5mC]*kA*kA*kA) [compound 799258] )
4

# get_value(readout='% Inhibition', item= 790460 (kA*kG*kG*dA*dG*d[5mC]*dG*dG*d[5mC]*dG*dG*d[5mC]*dG*kG*k[5mC]*k[5mC]; antisense) [compound 790460] )
58

# get_value(readout='% Inhibition', item= 830120 (kG*k[5mC]*k[5mC]*dG*dA*d[5mC]*d[5mC]*dT*dT*d[5mC]*d[5mC]*dT*d[5mC]*k[5mC]*k[5mC]*kA; antisense) [compound 830120] )
27

# get_value(readout='% Inhibition', item= 798782 (kT*kG*k[5mC]*dA*dG*d[5mC]*dA*d[5mC]*dA*d[5mC]*d[5mC]*dA*dG*k[5mC]*kT*k[5mC]; antisense) [compound 798782] )
51

# get_value(readout='% Inhibition', item= 830040 (antisense k[5mC]*kA*k[5mC]*dT*dT*d[5mC]*d[5mC]*dT*dA*dT*dT*dG*dG*k[5mC]*kT*kG) [compound 830040] )
44
